- System: SF-268 CNS
- assay.notes: NCI-60 one-dose screen, 48 h (100 = growth as untreated, 0 = no growth, -100 = all killed)
- test.settings: 10 µM unless noted
About 83,000 compounds went through this panel and 20% of them were active in at least one assay; those are over-represented in the sample as a whole.
measurement.label: growth (%)
Only the number, expressed in %, is required.

COc1ccc(S(=O)(=O)NCCNc2nccc(-c3c(-c4cccc(F)c4)nc4sccn34)n2)cc1 : 35.4
Cn1c(=O)c2c(nc(Cl)n2CCl)n(C)c1=O : 104
COc1ccc(C(=O)COc2ccc(/C=C3\Oc4ccccc4C3=O)cc2)cc1 : 108

Param item: "O=C(NCCCNc1cc(-c2cn(-c3ccccc3)nc2-c2cccc(O)c2)ccn1)c1ccc(F)cc1" ; param system: SF-268 CNS; output growth: 31.3

Entry "O=c1oc2ccccc2c(Cl)c1Cl" , SF-268 CNS data, growth value: 86.5

// growth (SF-268 CNS) for "N#Cc1nc(C#N)c(Sc2ccccc2)c(Sc2ccccc2)c1Sc1ccccc1" = -67.6

Entry "CN(C)CCC=C1c2ccccc2C(C)(C)c2ccccc21" ; assay system SF-268 CNS; growth recorded at 95.9
